# conditionsUsed: in 1,4-dioxane, 313.65 K
readoutLabel: solubility (mole fraction)
# print the numeric value only

Query string: What value of solubility (mole fraction) has been recorded for this entry: c1ccc(-c2cc3ccccc3[nH]2)cc1
Result string: 0.114

---

# conditionsUsed: in 1,4-dioxane, 293.15 K
readoutLabel: solubility (mole fraction)
# print the numeric value only

Query string: What value of solubility (mole fraction) has been recorded for this entry: c1ccc(-c2cc3ccccc3[nH]2)cc1
Result string: 0.0507

---

# conditionsUsed: in n-butanol, 338.55 K
readoutLabel: solubility (mole fraction)
# print the numeric value only

Query string: What value of solubility (mole fraction) has been recorded for this entry: c1ccc(-c2cc3ccccc3[nH]2)cc1
Result string: 0.0357

All values here come from BigSolDB 2.1.
